Values were extracted from PubChem BioAssay AID1566.

- EXPERIMENT: inhibition of NOD2-driven NF-kB reporter – cell-based, luminescence, uHTS, HEK293 (AID 1566)
- EXPERIMENTAL_CONDITIONS: HEK293 NOD2/NF-kB luciferase reporter, at 4 µM
Hit rate of the full screen: of about 290,000 compounds, about 1,800 (0.62%) were called active. No stated cut-off is given here; in the data, active means inhibition above about 50%; inactive means the rest. The sample as a whole holds a higher share of actives than the screen did.
Please state which outcome applies, choosing from active, inactive

Prompt: Tell me the assay call for COc1ccc(CC(=O)Nc2cccnc2)cc1 please.
Response: inactive

Prompt: Tell me the assay call for Cc1ccc(-c2csc(N3CCN(CCCn4c(C(F)(F)F)nc5ccccc54)CC3)n2)cc1 please.
Response: inactive

Prompt: Tell me the assay call for O=S(=O)(c1ccccc1)N1CCC(O)(CSc2ccccc2)CC1 please.
Response: inactive

Prompt: Tell me the assay call for O=C1CCN(C2CCN(Cc3nc(Cc4ccccc4F)no3)CC2)CCN1 please.
Response: inactive
